- subject_of_test: GST-tagged Tnks-1 (1023-1327 aa) (Homo sapiens, UniProt O95271)
- Construct: GST-tagged Tnks-1 (1023-1327 aa, prepared in-house); made in house
- Sequence (O95271 1023-1327): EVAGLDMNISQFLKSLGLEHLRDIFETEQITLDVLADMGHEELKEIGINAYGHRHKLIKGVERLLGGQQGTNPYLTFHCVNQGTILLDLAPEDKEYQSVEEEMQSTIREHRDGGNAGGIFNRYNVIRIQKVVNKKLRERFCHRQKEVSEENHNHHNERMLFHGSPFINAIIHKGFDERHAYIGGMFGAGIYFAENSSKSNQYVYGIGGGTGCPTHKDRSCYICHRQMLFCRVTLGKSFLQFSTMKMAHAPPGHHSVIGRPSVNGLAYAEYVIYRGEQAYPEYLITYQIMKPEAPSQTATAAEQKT
- test_name: TNKS1 activity ELISA (autoparsylation)
- Type: biochemical
- test_settings: activity ELISA, 1 hour at 30° C; read-out: IC50 TNKS1 ELISA
quantity: IC50

q: Respond only with IC50 recorded for CC(C)(C)c1ccc(CC(=O)Nc2nncc3ccccc23)cc1
a: < 300 nM

q: Name the recorded IC50 of the compound listed here: O=C(CCc1ccccc1Cl)Nc1nncc2ccccc12
a: < 300 nM

q: Kindly indicate its recorded IC50. Item: O=C(Cc1ccc(OC(F)(F)F)cc1)Nc1nncc2ccccc12
a: < 300 nM

q: Output IC50 of O=C(Cc1ccccc1)Nc1nncc2ccccc12 [Compound A1, 2-phenyl-N-phthalazin-1-yl-acetamide]
a: < 300 nM

q: Determine from records and report IC50 for O=C(Cc1cccc(OC(F)(F)F)c1)Nc1nncc2ccccc12
a: 300 to 3000 nM

q: Using known records, supply IC50 for O=C(CCC1CCCCC1)Nc1nncc2ccccc12
a: < 300 nM

q: Write down IC50 measured for item COc1ccc(CC(=O)Nc2nncc3ccccc23)cc1
a: < 300 nM

q: Indicate its recorded IC50; the compound in question is COc1cccc(CC(=O)Nc2nncc3ccccc23)c1
a: 300 to 3000 nM

q: Please report IC50 for the following compound: N#Cc1cccc(CC(=O)Nc2nncc3ccccc23)c1
a: 300 to 3000 nM

---

- subject_of_test: GST-tagged Tankyrase-1 (1023-1327 aa) (Homo sapiens, UniProt O95271)
- Construct: GST-tagged Tankyrase-1 (1023-1327 aa)
- Sequence (O95271 1023-1327): as the sequence (O95271 1023-1327) above
- test_name: Tankyrase 1 autoparsylation HTRF enzyme assay
- Type: biochemical
- test_settings: HTRF autoparsylation, 90 min at 30° C; read-out: IC50 TNKS1 enzyme assay
pIC50: −log10 of the molar value.
quantity: pIC50

q: Provide pIC50 value for the following compound: Cc1cccc2c(NC(=O)Cc3ccccc3)nncc12 [Compound A19]
a: 4.30 to 5.52

q: Look up and state reported pIC50 for O=C(Cc1ccc(OC(F)(F)F)cc1)Nc1nncc2ccccc12 [Compound A8]
a: > 6.52

q: Kindly indicate its recorded pIC50. Item: COc1cccc(CC(=O)Nc2nncc3ccccc23)c1 [Compound A2]
a: 5.52 to 6.52

q: Give me measured pIC50, please, for this compound: O=C(Cc1cccc(OC(F)(F)F)c1)Nc1nncc2ccccc12 [Compound A5]
a: 5.52 to 6.52

q: Return reported pIC50. Input compound: CCOc1ccc(CC(=O)Nc2nncc3c(F)cccc23)cc1 [Compound A11]
a: 4.30 to 5.52

---

pIC50: −log10 of the molar value.
quantity: pIC50

q: Under His-tagged Parp-1 (Homo sapiens, UniProt P09874), report pIC50 for CC(C)(C)c1ccc(CC(=O)Nc2nncc3ccccc23)cc1
a: 4.30 to 5.52

q: # return pIC50 of COc1cccc(CC(=O)Nc2nncc3ccccc23)c1 (system: His-tagged Parp-1 (Homo sapiens, UniProt P09874))
Sequence (P09874 whole entry): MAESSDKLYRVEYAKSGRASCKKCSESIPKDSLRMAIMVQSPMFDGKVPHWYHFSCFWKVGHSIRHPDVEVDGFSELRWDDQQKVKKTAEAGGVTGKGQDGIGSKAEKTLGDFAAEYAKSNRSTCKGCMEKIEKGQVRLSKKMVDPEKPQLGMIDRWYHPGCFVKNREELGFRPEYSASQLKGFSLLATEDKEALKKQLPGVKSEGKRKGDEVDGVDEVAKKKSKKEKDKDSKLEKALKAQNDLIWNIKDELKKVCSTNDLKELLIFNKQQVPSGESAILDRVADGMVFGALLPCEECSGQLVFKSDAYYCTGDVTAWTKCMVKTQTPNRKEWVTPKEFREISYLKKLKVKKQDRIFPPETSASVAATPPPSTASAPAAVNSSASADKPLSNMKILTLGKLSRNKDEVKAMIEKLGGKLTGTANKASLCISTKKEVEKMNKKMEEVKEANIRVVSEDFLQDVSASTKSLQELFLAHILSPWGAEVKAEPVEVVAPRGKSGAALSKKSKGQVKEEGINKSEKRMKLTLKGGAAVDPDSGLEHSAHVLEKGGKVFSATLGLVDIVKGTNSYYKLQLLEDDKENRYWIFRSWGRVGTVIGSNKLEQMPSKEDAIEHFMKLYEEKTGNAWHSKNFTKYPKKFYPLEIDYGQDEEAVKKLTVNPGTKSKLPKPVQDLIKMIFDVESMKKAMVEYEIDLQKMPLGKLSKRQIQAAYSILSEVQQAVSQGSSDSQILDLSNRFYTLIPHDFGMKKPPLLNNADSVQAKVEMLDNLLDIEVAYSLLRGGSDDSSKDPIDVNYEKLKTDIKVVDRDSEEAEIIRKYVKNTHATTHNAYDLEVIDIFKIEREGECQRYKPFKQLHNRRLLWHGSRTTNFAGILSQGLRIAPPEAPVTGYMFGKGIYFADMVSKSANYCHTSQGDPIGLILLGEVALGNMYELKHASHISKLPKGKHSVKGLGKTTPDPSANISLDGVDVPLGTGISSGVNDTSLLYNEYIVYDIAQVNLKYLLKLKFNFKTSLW
a: 4.30 to 5.52

q: Report value only: pIC50, His-tagged Parp-1 (Homo sapiens, UniProt P09874), O=C(Cc1cccc(OC(F)(F)F)c1)Nc1nncc2ccccc12
a: 4.30 to 5.52

q: State pIC50 (His-tagged Parp-1 (Homo sapiens, UniProt P09874)) of O=C(Cc1ccccc1)Nc1nncc2ccccc12 [Compound A1, 2-phenyl-N-phthalazin-1-yl-acetamide] .
a: 4.30 to 5.52

q: Provide pIC50, system His-tagged Parp-1 (Homo sapiens, UniProt P09874), entry O=C(Cc1c(Cl)cccc1Cl)Nc1nncc2ccccc12
a: 4.30 to 5.52

q: Fetch value of pIC50 on His-tagged Parp-1 (Homo sapiens, UniProt P09874) for O=C(Cc1cccc([N+](=O)[O-])c1)Nc1nncc2ccccc12 .
a: 5.52 to 6.52

q: Report value: pIC50, system: His-tagged Parp-1 (Homo sapiens, UniProt P09874), compound: CCOc1ccc(CC(=O)Nc2nncc3ccccc23)cc1
a: 4.30 to 5.52

---

- subject_of_test: GST-tagged Tnks-1 (1023-1327 aa) (Homo sapiens, UniProt O95271)
- Construct: GST-tagged Tnks-1 (1023-1327 aa, prepared in-house); made in house
- test_name: TNKS1 activity ELISA (autoparsylation)
- Assay type: biochemical
pIC50: −log10 of the molar value.
quantity: pIC50

q: State, in one line, measured pIC50 of O=C(Cc1cccc([N+](=O)[O-])c1)Nc1nncc2ccccc12 [Compound A7]
a: 5.52 to 6.52

---

- subject_of_test: GST-tagged Tankyrase-2 (873-1166 aa) (Homo sapiens, UniProt Q9H2K2)
- Construct: GST-tagged Tankyrase-2 (873-1166 aa)
- Sequence (Q9H2K2 873-1166): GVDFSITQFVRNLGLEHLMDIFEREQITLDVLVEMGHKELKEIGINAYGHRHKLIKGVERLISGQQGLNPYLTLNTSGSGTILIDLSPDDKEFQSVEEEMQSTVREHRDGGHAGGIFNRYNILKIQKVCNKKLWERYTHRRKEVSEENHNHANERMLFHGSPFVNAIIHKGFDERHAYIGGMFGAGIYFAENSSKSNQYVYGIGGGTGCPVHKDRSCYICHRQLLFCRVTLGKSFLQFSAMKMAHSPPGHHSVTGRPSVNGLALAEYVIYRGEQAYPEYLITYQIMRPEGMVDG
- test_name: Tankyrase 2 autoparsylation HTRF enzyme assay
- Type: biochemical
pIC50: −log10 of the molar value.
quantity: pIC50

q: Look up and report measured pIC50 for this entry: O=C(Cc1cccc([N+](=O)[O-])c1)Nc1nncc2ccccc12
a: 5.52 to 6.52

---

- subject_of_test: GST-tagged Tnks-2 (873-1166 aa) (Homo sapiens)
- Construct: GST-tagged Tnks-2 (873-1166 aa, prepared in-house); made in house
- test_name: TNKS2 activity ELISA (autoparsylation)
- Assay type: biochemical
- test_settings: activity ELISA, 1 hour at 30° C; read-out: IC50 TNKS2 ELISA
Could you please report measured IC50 for the items listed next?

q: Specify measured IC50 for CC(C)(C)c1ccc(CC(=O)Nc2nncc3ccccc23)cc1 .
a: < 300 nM

q: Could you please provide reported IC50 for O=C(Cc1ccc(OC(F)(F)F)cc1)Nc1nncc2ccccc12 ? Thanks!
a: < 300 nM

q: Identify the reported IC50 for the following entry. COc1cccc(CC(=O)Nc2nncc3ccccc23)c1
a: 300 to 3000 nM

q: Indicate the recorded IC50 value for this compound: COc1ccc(CC(=O)Nc2nncc3ccccc23)cc1
a: < 300 nM

q: Determine from records and report IC50 for O=C(CCC1CCCCC1)Nc1nncc2ccccc12
a: < 300 nM

q: Specify IC50 for O=C(Cc1ccccc1)Nc1nncc2ccccc12 [Compound A1, 2-phenyl-N-phthalazin-1-yl-acetamide] and stop.
a: 300 to 3000 nM

---

- subject_of_test: GST-tagged Tankyrase-1 (1023-1327 aa) (Homo sapiens)
- Construct: GST-tagged Tankyrase-1 (1023-1327 aa)
- test_name: Tankyrase 1 autoparsylation HTRF enzyme assay
- Format: biochemical
- test_settings: HTRF autoparsylation, 90 min at 30° C; read-out: IC50 TNKS1 enzyme assay
quantity: IC50

q: Check the records and state IC50 for O=C(Cc1c(Cl)cccc1Cl)Nc1nncc2ccccc12 [Compound A10]
a: 3000 to 50000 nM

q: Tell me its IC50 given O=C(CCc1ccccc1)Nc1nncc2ccccc12 [Compound A14, 3-phenyl-N-phthalazin-1-yl-propionamide] as the entry.
a: < 300 nM

q: Name the recorded IC50 of the item COc1ccc(CC(=O)Nc2nncc3c(F)cccc23)cc1 [Compound A12] in your answer.
a: 300 to 3000 nM

q: Identify measured IC50 associated with O=C(Cc1ccccc1)Nc1nncc2ccccc12 [Compound A1, 2-phenyl-N-phthalazin-1-yl-acetamide]
a: < 300 nM

q: # return recorded IC50 for entry O=C(CCC1CCCC1)Nc1nncc2ccccc12 [Compound A15]
a: < 300 nM

---

Can you tell me IC50 for the items I'm about to list?
- subject_of_test: GST-tagged Tankyrase-1 (1023-1327 aa) (Homo sapiens, UniProt O95271)
- Construct: GST-tagged Tankyrase-1 (1023-1327 aa)
- test_name: Tankyrase 1 autoparsylation HTRF enzyme assay
- Type: biochemical
- test_settings: HTRF autoparsylation, 90 min at 30° C; read-out: IC50 TNKS1 enzyme assay
- Procedure: Biochemical Activity Testing of Tankyrase 1 and 2: Autoparsylation Assay The autoparsylation assay is run in two steps: the enzymatic reaction in which GST-tagged Tankyrase-1, resp Tankyrase-2 transferred biotinylated ADP-ribose to itself from biotinylated NAD as co-substrate and the detection reaction where a time resolved FRET between cryptate labelled anti-GST bound to the GST tag of the enzyme and Xlent® labelled-streptavidin bound the biotin-parsylation residue is analysed. […]

q: Determine from records and report IC50 for CCOc1ccc(CC(=O)Nc2nncc3ccccc23)cc1
a: < 300 nM

q: Give the reported value of IC50 for this record: N#Cc1cccc(CC(=O)Nc2nncc3ccccc23)c1
a: 300 to 3000 nM

q: # return recorded IC50 for entry CC(C)(C)c1ccc(CC(=O)Nc2nncc3ccccc23)cc1
a: 300 to 3000 nM

q: Write down IC50 measured for item O=C(CCc1cccc(Cl)c1Cl)Nc1nncc2ccccc12
a: < 300 nM

q: Provide measured IC50 value, entry: Cc1cccc2cnnc(NC(=O)Cc3ccccc3)c12
a: 300 to 3000 nM

q: Assign IC50 to the following record: COc1ccc(CC(=O)Nc2nncc3cccc(C)c23)cc1
a: 300 to 3000 nM

q: Give the reported value of IC50 for this record: COc1ccc(CC(=O)Nc2nncc3c(C)cccc23)cc1
a: 3000 to 50000 nM

q: Supply IC50 value. Item: COc1ccc(CC(=O)Nc2nncc3ccccc23)cc1
a: < 300 nM

q: For the compound O=C(CCc1ccccc1Cl)Nc1nncc2ccccc12 , report IC50.
a: < 300 nM

q: Hello, please tell me recorded IC50 for this one: O=C(CCC1CCCCC1)Nc1nncc2ccccc12
a: 300 to 3000 nM
